# pIC50 annotations
molecular target: PDGFRB (Homo sapiens); construct: Kinases are expressed as either kinase domains or full length constructs; made in house; assay: Kinase inhibition assay (33P transfer), PDGFRB; format: biochemical; conditions: read-out: PDGFRB-1
Sequence (P09619 33-1106, species assumed): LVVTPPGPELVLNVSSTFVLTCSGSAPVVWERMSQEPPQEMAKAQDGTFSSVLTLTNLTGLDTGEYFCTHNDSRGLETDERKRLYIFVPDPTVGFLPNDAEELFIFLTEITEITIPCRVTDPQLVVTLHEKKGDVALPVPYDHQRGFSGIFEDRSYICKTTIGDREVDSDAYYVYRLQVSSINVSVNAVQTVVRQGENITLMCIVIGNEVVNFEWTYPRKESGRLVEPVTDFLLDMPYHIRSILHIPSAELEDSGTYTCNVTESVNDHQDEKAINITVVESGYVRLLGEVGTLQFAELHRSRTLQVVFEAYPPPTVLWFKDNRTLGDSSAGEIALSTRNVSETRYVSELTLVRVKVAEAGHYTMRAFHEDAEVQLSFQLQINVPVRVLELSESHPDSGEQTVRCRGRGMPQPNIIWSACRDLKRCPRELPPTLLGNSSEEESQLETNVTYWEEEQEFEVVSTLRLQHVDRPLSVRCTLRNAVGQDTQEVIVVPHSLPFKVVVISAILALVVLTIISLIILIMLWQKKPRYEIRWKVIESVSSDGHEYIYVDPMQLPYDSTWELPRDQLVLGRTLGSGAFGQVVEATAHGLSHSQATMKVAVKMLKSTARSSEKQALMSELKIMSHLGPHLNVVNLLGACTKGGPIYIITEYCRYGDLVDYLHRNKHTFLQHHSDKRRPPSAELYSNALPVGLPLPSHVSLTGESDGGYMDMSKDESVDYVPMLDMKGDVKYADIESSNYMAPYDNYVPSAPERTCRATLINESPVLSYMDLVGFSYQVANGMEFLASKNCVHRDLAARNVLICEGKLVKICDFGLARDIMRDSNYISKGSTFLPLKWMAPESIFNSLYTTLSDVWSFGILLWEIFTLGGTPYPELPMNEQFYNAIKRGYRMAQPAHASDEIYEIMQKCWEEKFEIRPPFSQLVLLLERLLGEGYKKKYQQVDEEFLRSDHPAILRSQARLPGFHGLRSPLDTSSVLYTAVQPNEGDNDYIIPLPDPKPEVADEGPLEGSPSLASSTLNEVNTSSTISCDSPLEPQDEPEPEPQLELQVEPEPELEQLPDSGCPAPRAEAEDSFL
pIC50: −log10 of the molar value.
readoutName: pIC50

[[record]]
compound = "COC(=O)c1ccc(-c2cc(Nc3ncnc(Nc4cccc(CC(=O)O)c4)n3)[nH]n2)cc1"
result = "5.27 to 6.05"

[[record]]
compound = "COc1cc(Nc2ncnc(-n3cnc4ccccc43)n2)cc(OC)c1OC"
result = "> 5.98"

[[record]]
compound = "CCOC(=O)Cc1cn(-c2ncnc(Nc3cc(OC)c(OC)c(OC)c3)n2)c2ccccc12"
result = "> 6.06"

[[record]]
compound = "COc1cc(Nc2ncnc(Nc3cc(OC)c(OC)c(OC)c3)n2)cc(OC)c1"
result = "5.24 to 6.01"

[[record]]
compound = "COc1cc(Nc2ncnc(-n3c(NCc4ccncc4)nc4ccccc43)n2)cc(OC)c1OC"
result = "> 6.08"

[[record]]
compound = "O=C(O)Cc1cccc(Nc2ncnc(Nc3cc(-c4ccco4)n[nH]3)n2)c1"
result = "5.20 to 5.97"

[[record]]
compound = "COc1cc(Nc2ncnc(-n3c(NCc4cccs4)nc4ccccc43)n2)cc(OC)c1OC"
result = "> 6.09"

[[record]]
compound = "COc1cc(Nc2ncnc(-n3c(NC(C)C)nc4ccccc43)n2)cc(OC)c1OC"
result = "> 6.04"

[[record]]
compound = "COc1cc(Nc2ncnc(Nc3ccc(Oc4ccccc4)cc3)n2)cc(OC)c1OC"
result = "5.27 to 6.05"

[[record]]
compound = "COc1cc(Nc2ncnc(N3c4ccccc4CCC3C)n2)cc(OC)c1OC (stereo not drawn)"
result = "5.23 to 6.01"

[[record]]
compound = "COc1cc(Nc2ncnc(Nc3ccc(N(C)C)cc3)n2)cc(OC)c1OC"
result = "< 4.94"

[[record]]
compound = "COc1cc(Nc2ncnc(N(C)c3cccc(Cl)c3)n2)cc(OC)c1OC"
result = "5.22 to 6.00"

[[record]]
compound = "COc1cc(Nc2ncnc(Nc3cccc(C(C)=O)c3)n2)cc(OC)c1OC"
result = "> 5.99"

[[record]]
compound = "COc1cc(Nc2ncnc(Nc3ccc(F)c(Cl)c3)n2)cc(OC)c1OC"
result = "> 6.01"

[[record]]
compound = "COc1cc(Nc2ncnc(-n3c(NCc4ccccc4C)nc4ccccc43)n2)cc(OC)c1OC"
result = "> 6.09"

[[record]]
compound = "COc1cc(Nc2ncnc(Nc3ccc4ccccc4c3)n2)cc(OC)c1OC"
result = "5.23 to 6.00"

[[record]]
compound = "Cc1cccc(Nc2ncnc(Nc3ccc4[nH]ncc4c3)n2)c1"
result = "> 5.90"

[[record]]
compound = "COc1cc(Nc2ncnc(Nc3ccc(C)cc3F)n2)cc(OC)c1OC"
result = "> 5.98"


* * *

molecular target: EGFR (Homo sapiens); construct: Kinases are expressed as either kinase domains or full length constructs; made in house; assay: Kinase inhibition assay (33P transfer), EGFR; format: biochemical; conditions: Table 2, class symbols A-E; read-out: EGFR-1
readoutName: IC50

[[record]]
compound = "c1ccc(CNc2ncccc2-c2ncnc(Nc3cccc(Cn4ccnn4)c3)n2)cc1"
result = "0.918 to 5.51 µM"

[[record]]
compound = "COc1cc(Nc2ncnc(N3CCCc4cc(Cl)ccc43)n2)cc(OC)c1OC"
result = "< 0.935 µM"

[[record]]
compound = "COC(=O)c1ccc(-c2cc(Nc3ncnc(Nc4cccc5ncccc45)n3)[nH]n2)cc1"
result = "> 10.3 µM"

[[record]]
compound = "COc1cc(Nc2ncnc(-c3cccnc3NC(C)c3ccccc3)n2)cc(OC)c1OC (centres unmarked)"
result = "> 9.81 µM"

[[record]]
compound = "c1ccc(Nc2ncccc2-c2ncnc(Nc3ccc(N4CCOCC4)cc3)n2)cc1"
result = "0.94 to 5.64 µM"

[[record]]
compound = "c1coc(-c2cc(Nc3ncnc(Nc4nc[nH]n4)n3)n[nH]2)c1"
result = "1.29 to 7.73 µM"

[[record]]
compound = "COc1cc(Nc2ncnc(Nc3ccc(OCCO)cc3)n2)cc(OC)c1OC"
result = "0.968 to 5.81 µM"

[[record]]
compound = "COc1cc(Nc2ncnc(-c3cccnc3Nc3ccc(Oc4ccccc4)cc3)n2)cc(OC)c1OC"
result = "> 8.61 µM"


* * *

target: EGFR (Homo sapiens, UniProt P00533); construct: Kinases are expressed as either kinase domains or full length constructs; made in house; assay: Kinase inhibition assay (33P transfer), EGFR; assay type: biochemical; conditions: Table 2, kinase inhibition class; read-out: EGFR-1
Sequence (P00533 25-1210, species assumed): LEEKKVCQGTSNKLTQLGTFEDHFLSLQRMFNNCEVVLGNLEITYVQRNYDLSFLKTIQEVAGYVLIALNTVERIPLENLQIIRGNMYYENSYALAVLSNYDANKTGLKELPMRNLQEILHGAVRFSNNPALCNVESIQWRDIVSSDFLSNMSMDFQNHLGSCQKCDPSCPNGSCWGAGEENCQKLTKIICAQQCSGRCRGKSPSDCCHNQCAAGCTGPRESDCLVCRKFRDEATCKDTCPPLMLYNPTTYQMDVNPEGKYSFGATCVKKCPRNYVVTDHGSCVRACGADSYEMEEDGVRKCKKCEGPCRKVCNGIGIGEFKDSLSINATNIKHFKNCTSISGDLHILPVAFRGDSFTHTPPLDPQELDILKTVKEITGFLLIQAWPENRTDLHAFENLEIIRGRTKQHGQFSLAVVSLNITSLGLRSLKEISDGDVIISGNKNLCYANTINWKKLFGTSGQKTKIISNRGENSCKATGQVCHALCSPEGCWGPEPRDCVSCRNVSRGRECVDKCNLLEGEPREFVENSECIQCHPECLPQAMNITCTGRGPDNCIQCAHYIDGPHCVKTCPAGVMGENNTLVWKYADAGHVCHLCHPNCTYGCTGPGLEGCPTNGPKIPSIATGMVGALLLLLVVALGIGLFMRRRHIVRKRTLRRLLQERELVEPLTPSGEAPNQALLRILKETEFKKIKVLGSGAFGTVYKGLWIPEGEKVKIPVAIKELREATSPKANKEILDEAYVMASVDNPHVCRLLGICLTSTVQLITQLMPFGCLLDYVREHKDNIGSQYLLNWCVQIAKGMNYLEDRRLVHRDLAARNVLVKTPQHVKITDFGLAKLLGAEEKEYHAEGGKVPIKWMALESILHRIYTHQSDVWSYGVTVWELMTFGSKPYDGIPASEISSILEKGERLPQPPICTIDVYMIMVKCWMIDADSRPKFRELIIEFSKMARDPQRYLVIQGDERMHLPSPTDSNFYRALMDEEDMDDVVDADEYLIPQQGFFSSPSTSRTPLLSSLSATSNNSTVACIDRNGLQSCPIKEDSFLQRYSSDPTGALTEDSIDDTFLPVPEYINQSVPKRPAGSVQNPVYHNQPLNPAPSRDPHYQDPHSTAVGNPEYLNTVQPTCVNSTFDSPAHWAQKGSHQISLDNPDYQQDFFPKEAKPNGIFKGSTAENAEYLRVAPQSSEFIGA
pIC50: −log10 of the molar value.
# pIC50 annotations
readoutName: pIC50

[[record]]
compound = "CCOc1ccc(Nc2ncnc(-n3c(N)nc4ccccc43)n2)cc1OCC"
assaytarget = "EGFR (Homo sapiens, UniProt P00533)"
readoutname = "pIC50"
result = "5.05 to 5.21"

[[record]]
compound = "Cc1ccc2c(c1)CCCN2c1ncnc(NCCCn2ccnc2)n1"
assaytarget = "EGFR (Homo sapiens, UniProt P00533)"
readoutname = "pIC50"
result = "< 4.89"

[[record]]
compound = "Brc1cccc(Nc2ncnc(Nc3ccc4c(cnn4Cc4ccccc4)c3)n2)c1"
assaytarget = "EGFR (Homo sapiens, UniProt P00533)"
readoutname = "pIC50"
result = "> 6.07"

[[record]]
compound = "Nc1ncnc(Nc2ccc(C3CCCCC3)cc2)n1"
assaytarget = "EGFR (Homo sapiens, UniProt P00533)"
readoutname = "pIC50"
result = "< 4.78"

[[record]]
compound = "COc1cc(Nc2ncnc(-n3c(N)nc4ccccc43)n2)cc(OCCN2CCOCC2)c1OC"
assaytarget = "EGFR (Homo sapiens, UniProt P00533)"
readoutname = "pIC50"
result = "< 5.04"

[[record]]
compound = "COc1cc(Nc2ncnc(-n3nc(-c4ccccc4)cc3N)n2)cc(OC)c1OC"
assaytarget = "EGFR (Homo sapiens, UniProt P00533)"
readoutname = "pIC50"
result = "< 4.97"

[[record]]
compound = "COc1cc(Nc2ncnc(-c3ccc(NCc4ccccc4)nc3)n2)cc(OC)c1OC"
assaytarget = "EGFR (Homo sapiens, UniProt P00533)"
readoutname = "pIC50"
result = "< 4.99"

[[record]]
compound = "COc1cc(Nc2ncnc(-c3ccsc3)n2)cc(OC)c1OC"
assaytarget = "EGFR (Homo sapiens, UniProt P00533)"
readoutname = "pIC50"
result = "< 4.88"

[[record]]
compound = "COc1cc(Nc2ncnc(Nc3cccc4ncccc34)n2)cc(OC)c1OC"
assaytarget = "EGFR (Homo sapiens, UniProt P00533)"
readoutname = "pIC50"
result = "5.06 to 5.23"

[[record]]
compound = "Nc1nc2ccccc2n1-c1ncnc(Nc2ccc(Cl)cc2)n1"
assaytarget = "EGFR (Homo sapiens, UniProt P00533)"
readoutname = "pIC50"
result = "5.15 to 5.93"

[[record]]
compound = "COC(=O)C(c1ccccc1)c1ncnc(Nc2cc(OC)c(OC)c(OC)c2)n1 (stereo not drawn)"
assaytarget = "EGFR (Homo sapiens, UniProt P00533)"
readoutname = "pIC50"
result = "< 4.96"

[[record]]
compound = "CN(c1cccc(Cl)c1)c1ncnc(NCCN2CCCCC2)n1"
assaytarget = "EGFR (Homo sapiens, UniProt P00533)"
readoutname = "pIC50"
result = "5.00 to 5.16"

[[record]]
compound = "CC(C)(C)c1cc(Nc2ncnc(Nc3ccc(C(N)=O)cc3)n2)[nH]n1"
assaytarget = "EGFR (Homo sapiens, UniProt P00533)"
readoutname = "pIC50"
result = "5.17 to 5.94"

[[record]]
compound = "COc1cc(Nc2ncnc(-n3c(NCc4ccc(F)cc4Cl)nc4ccccc43)n2)cc(OC)c1OC"
assaytarget = "EGFR (Homo sapiens, UniProt P00533)"
readoutname = "pIC50"
result = "5.08 to 5.19"

[[record]]
compound = "COc1ccc(Nc2ccc(Nc3ncnc(Nc4cc(OC)c(OC)c(OC)c4)n3)cc2)cc1"
assaytarget = "EGFR (Homo sapiens, UniProt P00533)"
readoutname = "pIC50"
result = "5.30 to 6.07"

[[record]]
compound = "NC(=O)Cc1cccc(Nc2ncnc(Nc3cc(-c4ccccc4)n[nH]3)n2)c1"
assaytarget = "EGFR (Homo sapiens, UniProt P00533)"
readoutname = "pIC50"
result = "> 5.98"

[[record]]
compound = "OCCCNc1cc(-c2ncnc(Nc3cccc(OC(F)(F)C(F)F)c3)n2)ccn1"
assaytarget = "EGFR (Homo sapiens, UniProt P00533)"
readoutname = "pIC50"
result = "< 4.99"

[[record]]
compound = "COc1cc(Nc2ncnc(Nc3ccc(OCc4ccccc4)cc3)n2)cc(OC)c1"
assaytarget = "EGFR (Homo sapiens, UniProt P00533)"
readoutname = "pIC50"
result = "> 6.03"

[[record]]
compound = "CN(c1cccc(Cl)c1)c1ncnc(Nc2ccccc2)n1"
assaytarget = "EGFR (Homo sapiens, UniProt P00533)"
readoutname = "pIC50"
result = "> 5.89"

[[record]]
compound = "Nc1nc2ccccc2n1-c1ncnc(Nc2cccc(CC(=O)NCc3ccccn3)c2)n1"
assaytarget = "EGFR (Homo sapiens, UniProt P00533)"
readoutname = "pIC50"
result = "< 5.00"

[[record]]
compound = "COc1cc(C)c(Nc2ncnc(-c3cccs3)n2)cc1OC"
assaytarget = "EGFR (Homo sapiens, UniProt P00533)"
readoutname = "pIC50"
result = "< 4.86"

[[record]]
compound = "Nc1ncnc(Nc2cccc(Nc3ncnc(N)n3)c2)n1"
assaytarget = "EGFR (Homo sapiens, UniProt P00533)"
readoutname = "pIC50"
result = "< 4.82"

[[record]]
compound = "O=c1[nH]c2ccccc2n1-c1ncnc(Nc2ccc3ccccc3c2)n1"
assaytarget = "EGFR (Homo sapiens, UniProt P00533)"
readoutname = "pIC50"
result = "< 4.90"

[[record]]
compound = "c1csc(-c2ncnc(Nc3ccncc3)n2)c1"
assaytarget = "EGFR (Homo sapiens, UniProt P00533)"
readoutname = "pIC50"
result = "< 4.75"

[[record]]
compound = "COc1cc(Nc2ncnc(-n3c(C)nc4ccccc43)n2)cc(OC)c1OC"
assaytarget = "EGFR (Homo sapiens, UniProt P00533)"
readoutname = "pIC50"
result = "5.05 to 5.21"

[[record]]
compound = "Brc1cccc(Nc2ncnc(Nc3cccc(Br)c3)n2)c1"
assaytarget = "EGFR (Homo sapiens, UniProt P00533)"
readoutname = "pIC50"
result = "> 6.02"

[[record]]
compound = "COc1cc(Nc2ncnc(N3CCc4cc([N+](=O)[O-])ccc43)n2)cc(OC)c1OC"
assaytarget = "EGFR (Homo sapiens, UniProt P00533)"
readoutname = "pIC50"
result = "< 4.97"

[[record]]
compound = "Cc1cccc(Nc2ncnc(N3CCCc4ccc(C(F)(F)F)cc43)n2)c1"
assaytarget = "EGFR (Homo sapiens, UniProt P00533)"
readoutname = "pIC50"
result = "> 5.98"

[[record]]
compound = "C=CCN(c1ccc(Cl)cc1)c1ncnc(Nc2cc(OC)c(OC)c(OC)c2)n1"
assaytarget = "EGFR (Homo sapiens, UniProt P00533)"
readoutname = "pIC50"
result = "> 6.03"

[[record]]
compound = "COc1cc(Nc2ncnc(Nc3cccc(C(C)=O)c3)n2)cc(OC)c1OC"
assaytarget = "EGFR (Homo sapiens, UniProt P00533)"
readoutname = "pIC50"
result = "5.22 to 5.99"

[[record]]
compound = "COc1cc(Nc2ncnc(Nc3ccc(Cl)cc3F)n2)cc(OC)c1OC"
assaytarget = "EGFR (Homo sapiens, UniProt P00533)"
readoutname = "pIC50"
result = "> 6.01"

[[record]]
compound = "COc1cc(Nc2ncnc(-n3c(Nc4ccc(OC(F)(F)F)cc4)nc4ccccc43)n2)cc(OC)c1OC"
assaytarget = "EGFR (Homo sapiens, UniProt P00533)"
readoutname = "pIC50"
result = "5.20 to 5.36"

[[record]]
compound = "COc1ccc(N(C)c2ncnc(-n3c(N)nc4ccccc43)n2)cc1"
assaytarget = "EGFR (Homo sapiens, UniProt P00533)"
readoutname = "pIC50"
result = "< 4.89"

